Recorded inhibition, one value per entry.
- Measured Target: Prostaglandin G/H synthase 2 (Homo sapiens)
- Run Description: Inhibition of COX-2 in human MDA-MB-231 cells assessed as inhibition of arachidonic acid-induced PGE2 formation at 100 uM incubated for 30 mins prior to arachidonic acid challenge measured after 30 mins by radioimmunoassay relative to vehicle-treated control
Metric Name: inhibition

>>> reported("FC(F)(F)c1onc(-c2ccc(Cl)o2)c1-c1ccccc1")
"70%"
>>> reported("Cc1onc(-c2ccc(Br)o2)c1-c1ccccc1")
"70%"
>>> reported("Cc1ccc(-c2noc(C)c2-c2ccccc2)o1")
"70%"

###

- Measured Target: Prostaglandin G/H synthase 1 (Homo sapiens, UniProt P23219)
- Sequence (P23219 whole entry): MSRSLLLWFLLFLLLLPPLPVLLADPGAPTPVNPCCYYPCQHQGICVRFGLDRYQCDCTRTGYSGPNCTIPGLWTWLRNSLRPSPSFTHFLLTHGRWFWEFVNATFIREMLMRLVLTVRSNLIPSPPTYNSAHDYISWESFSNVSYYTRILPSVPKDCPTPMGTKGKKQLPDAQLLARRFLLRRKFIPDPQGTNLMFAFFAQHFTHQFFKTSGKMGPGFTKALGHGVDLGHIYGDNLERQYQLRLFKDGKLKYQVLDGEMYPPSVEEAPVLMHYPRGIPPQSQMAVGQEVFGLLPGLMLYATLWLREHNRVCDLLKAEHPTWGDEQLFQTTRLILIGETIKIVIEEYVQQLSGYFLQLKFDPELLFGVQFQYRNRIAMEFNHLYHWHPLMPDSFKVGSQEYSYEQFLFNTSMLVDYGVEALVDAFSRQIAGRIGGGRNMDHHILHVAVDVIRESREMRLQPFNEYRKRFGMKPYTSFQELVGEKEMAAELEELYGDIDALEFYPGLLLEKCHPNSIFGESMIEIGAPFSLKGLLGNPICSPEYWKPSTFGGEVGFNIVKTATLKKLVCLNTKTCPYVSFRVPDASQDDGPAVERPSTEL
- Run Description: Inhibition of COX-1 in human whole blood assessed as inhibition of serum TXB2 level after 1 hr by radioimmunoassay
Parameter IC50: see the listing below.
Metric Name: IC50 (µM)

>>> reported("COC(=O)c1c(-c2ccc(Cl)o2)noc1-c1ccccc1")
17.4
>>> reported("CC(=O)/C(=C(\\N)c1ccco1)c1ccccc1")
37
>>> reported("Cc1onc(-c2ccco2)c1-c1ccccc1")
2.2
>>> reported("COC(=O)c1onc(-c2ccc(Cl)o2)c1-c1ccccc1")
19.2

###

Item-by-item account of pIC50
- Measured Target: Prostaglandin G/H synthase 1 (Homo sapiens)
- Run Description: Inhibition of COX-1 (unknown origin) in platelet rich plasma assessed as inhibition of collagen-induced TXB2 formation incubated for 5 mins prior to collagen challenge measured for 5 mins by aggregometric analysis
pIC50: −log10 of the molar value.
Metric Name: pIC50

>>> reported("CC(=O)OCc1onc(-c2ccc(Cl)o2)c1-c1ccccc1")
4.64
>>> reported("Cc1ccc(-c2noc(C)c2-c2ccccc2)o1")
5.13
>>> reported("Cc1onc(-c2ccc(Cl)o2)c1-c1ccccc1")
4.73
>>> reported("Cc1onc(-c2ccc(Br)o2)c1-c1ccccc1")
5.12
>>> reported("FC(F)(F)c1onc(-c2ccc(Cl)o2)c1-c1ccccc1")
5.00

###

- Measured Target: Prostaglandin G/H synthase 2 (Homo sapiens, UniProt P35354)
- Sequence (P35354 whole entry): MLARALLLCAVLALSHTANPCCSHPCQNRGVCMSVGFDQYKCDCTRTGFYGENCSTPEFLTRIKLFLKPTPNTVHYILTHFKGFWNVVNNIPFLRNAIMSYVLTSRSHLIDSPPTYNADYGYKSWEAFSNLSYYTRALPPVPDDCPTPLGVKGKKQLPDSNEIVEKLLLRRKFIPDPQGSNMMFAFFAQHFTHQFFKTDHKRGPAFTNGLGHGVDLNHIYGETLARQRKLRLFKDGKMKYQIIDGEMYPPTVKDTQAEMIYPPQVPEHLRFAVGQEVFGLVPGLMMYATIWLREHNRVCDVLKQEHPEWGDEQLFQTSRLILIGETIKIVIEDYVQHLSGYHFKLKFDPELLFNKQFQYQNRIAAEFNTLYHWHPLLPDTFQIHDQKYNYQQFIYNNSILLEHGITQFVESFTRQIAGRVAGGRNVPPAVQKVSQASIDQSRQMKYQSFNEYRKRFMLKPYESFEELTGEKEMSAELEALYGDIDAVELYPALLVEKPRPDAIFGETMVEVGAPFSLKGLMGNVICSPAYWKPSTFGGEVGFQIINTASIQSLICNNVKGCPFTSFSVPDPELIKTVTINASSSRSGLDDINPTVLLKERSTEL
- Run Description: Inhibition of COX-2 in human whole blood assessed as inhibition of LPS-induced plasma PGE2 level by radioimmunoassay
// reported IC50 for each item listed
Metric Name: IC50 (µM)

>>> reported("Cc1onc(-c2ccc(Cl)o2)c1-c1ccc(F)cc1")
17.2
>>> reported("Cc1onc(-c2ccccc2Cl)c1-c1ccccc1")
1.1
>>> reported("Cc1onc(-c2cccc(Cl)c2)c1-c1ccccc1")
0.27
>>> reported("Cc1onc(-c2ccc(Br)o2)c1-c1ccccc1")
34

###

- Measured Target: COX-1/COX-2 (Homo sapiens) (UniProt P35354+P23219)
- Sequence (P23219 whole entry, looked up, one chain of several): as the sequence (P23219 whole entry) above
- Run Description: Selectivity ratio of IC50 for COX-2 in human whole blood to COX-1 in human whole blood
- Assay type: tissue-based
Metric Name: Ratio IC50

>>> reported("COC(=O)c1c(-c2ccc(Cl)o2)noc1-c1ccccc1")
"> 5.75"
>>> reported("CC(=O)/C(=C(\\N)c1ccco1)c1ccccc1")
"> 2.7"
>>> reported("Cc1onc(-c2ccc(Cl)o2)c1-c1ccc(F)cc1")
9.05
>>> reported("COC(=O)c1c(-c2ccccc2)noc1-c1ccccc1")
"> 5.79"
>>> reported("COC(=O)c1onc(-c2ccc(Cl)o2)c1-c1ccccc1")
"> 5.21"

Origin of the recorded values: ChEMBL document CHEMBL2380195
